test system: Potassium-transporting ATPase (Canis familiaris); test: Percent inhibition of gastric proton-pump enzyme H+/K+ ATPase was determined at 50 uM; settings: Canis lupus familiaris, Stomach
Classification field: Met = inhibition at or over 70%; Not met = inhibition under 70%.

Answered examples (5):
>>> df
                           structure_smiles  class_label
0  Cc1sc(N=C(N)N)nc1-c1ccn(S(=O)(=O)c2ccccc2)c1C          Met
1            N=C(N)Nc1cc(Cl)nc(-c2ccccc2)n1          Met
2  N=C(NCc1ccccc1)Nc1nc(-c2ccc(-c3ccccc3)cc2)cs1      Not met
3   Cc1[nH]c2ccc(Cl)cc2c1-c1nc(N=C(N)N)sc1C          Met
4                Cc1nc(-c2c[nH]c(C=O)c2)cs1      Not met

Req: Kindly determine if inhibition recorded for `N=C(N)Nc1nc(-c2c[nH]c3ccccc23)cs1` is above or exactly 70%.
Resp: Met

Req: Check the entry `Cc1cc(-c2csc(NC3=NCCCN3Cc3ccccc3)n2)c[nH]1` : does inhibition equal or exceed 70%?
Resp: Not met

Req: Check the entry `Cc1[nH]c2ccccc2c1-c1csc(NC(=N)NCc2ccccc2)n1` : does inhibition equal or exceed 70%?
Resp: Met

Req: API: above_or_equal(metric=inhibition, cutoff=70%) for item `N=C(N)Nc1nc(-c2cccc(Cl)c2)cs1`
Resp: Not met

Req: Check the entry `N=C(N)Nc1nc(-c2ccccc2)co1` : does inhibition equal or exceed 70%?
Resp: Not met

Req: Reported inhibition at or above 70%? `N=C(N)Nc1ccc(-c2ccccc2)cc1`
Resp: Not met

Req: I'd appreciate it if you could say whether `Cl.N=C(N)Nc1nc(-c2c[nH]c3ccc(Cl)cc23)cs1` has inhibition at least equal to 70%.
Resp: Met

Req: For this molecule, is measured inhibition 70% or higher? `N=C(N)Nc1nc(-c2ccc(F)cc2)cs1`
Resp: Not met

Req: Kindly determine if inhibition recorded for `CCCCCCN(C)C(=N)Nc1nc(-c2c[nH]c(C)c2)cs1` is above or exactly 70%.
Resp: Not met

Req: Quick check, inhibition >= 70%? `Cc1ccc2[nH]cc(-c3csc(N=C(N)N)n3)c2c1`
Resp: Met

====

target: Potassium-transporting ATPase (Canis familiaris); experiment: Inhibitory activity against dog gastric proton-pump enzyme H+/K+ ATPase
Property label: IC50 (µM)
Give bare numbers, in µM.

In the examples that follow, each entry is paired with its recorded IC50.
>>> df
                           structure_smiles  result_value
0  Cc1cc(-c2csc(N=C(N)N)n2)cn1S(=O)(=O)c1ccccc1             2
1              Cc1cc(-c2csc(N=C(N)N)n2)cn1C            24

Here is the next item to consider.
Req: Fill blank: measured IC50 of the compound `N=C(N)Nc1nc(-c2cc3cc(F)ccc3[nH]2)cs1` is ____.
Resp: 4
